- experimental.target: CYP2B6 (Homo sapiens)
- Construct: made in house; host or cells: Sf9 insect cells, recombinant baculoviruses
- Sequence (P20813 1-491): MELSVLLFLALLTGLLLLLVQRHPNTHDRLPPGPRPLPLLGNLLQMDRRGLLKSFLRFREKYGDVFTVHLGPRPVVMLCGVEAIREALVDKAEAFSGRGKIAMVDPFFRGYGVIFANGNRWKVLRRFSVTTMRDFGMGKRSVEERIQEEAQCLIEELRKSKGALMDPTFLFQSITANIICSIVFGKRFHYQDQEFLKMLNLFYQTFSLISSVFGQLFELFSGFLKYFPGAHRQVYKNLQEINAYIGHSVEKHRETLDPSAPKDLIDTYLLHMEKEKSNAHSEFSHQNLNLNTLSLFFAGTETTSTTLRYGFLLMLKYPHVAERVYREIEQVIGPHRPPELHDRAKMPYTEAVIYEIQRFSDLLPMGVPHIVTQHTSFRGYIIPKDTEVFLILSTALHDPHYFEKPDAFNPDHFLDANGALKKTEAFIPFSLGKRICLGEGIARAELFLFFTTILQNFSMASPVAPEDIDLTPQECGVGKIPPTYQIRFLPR
- method.notes: Inhibition of human CYP2B6 (7-ethoxy-4-trifluoromethyl-coumarin, fluorescence)
- Type: biochemical
- cond: substrate 7-ethoxy-4-trifluoromethyl-coumarin 6 μM; microsomes with 1.5 pmoles CYP2B6; 40 min at 37° C.; read-out: CYP2B6 inhibitor activity IC50
parameter: IC50

{"compound": "CCCCCC/C(=C\\C1CC1)C(C)=O [Compound ID 2, (E)-3-(cyclopropylmethylene)nonan-2-one]", "result": "3.5 µM"}
{"compound": "CCCCC/C(=C\\C1CC1)C(C)=O [Compound ID 3, (E)-3-(cyclopropylmethylene)octan-2-one]", "result": "4 µM"}
{"compound": "CCCC/C(=C\\C1CC1)C(C)=O [Compound ID 1, (E)-3-(cyclopropylmethylene)heptan-2-one]", "result": "3.9 µM"}

====

- experimental.target: UniProt:Q16696
- Sequence (Q16696 whole entry): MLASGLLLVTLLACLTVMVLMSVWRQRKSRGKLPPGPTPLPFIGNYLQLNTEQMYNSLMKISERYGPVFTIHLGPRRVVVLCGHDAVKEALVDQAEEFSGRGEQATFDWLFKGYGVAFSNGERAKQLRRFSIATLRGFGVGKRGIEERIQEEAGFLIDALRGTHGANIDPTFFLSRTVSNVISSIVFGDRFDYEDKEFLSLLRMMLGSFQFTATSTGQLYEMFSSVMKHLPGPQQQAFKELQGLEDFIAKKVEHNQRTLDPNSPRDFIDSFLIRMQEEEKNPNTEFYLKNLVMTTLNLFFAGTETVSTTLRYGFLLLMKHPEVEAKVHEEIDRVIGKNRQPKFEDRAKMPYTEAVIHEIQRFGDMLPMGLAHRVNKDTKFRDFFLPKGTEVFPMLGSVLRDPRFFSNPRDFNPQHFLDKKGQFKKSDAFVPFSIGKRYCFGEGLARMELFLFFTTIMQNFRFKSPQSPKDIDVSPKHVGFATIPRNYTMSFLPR
- method.notes: Evaluation of test compounds as inhibitors of CYP2A13 (coumarin to Umbelliferone, fluorescence)
- cond: substrate coumarin 0.006 mM; microsomes with 7 pmoles CYP2A13; 60 min at 37° C.; read-out: CYP2A13 inhibitor activity IC50
pIC50: −log10 of the molar value.
The entries below are paired with their reported pIC50.
parameter: pIC50

{"compound": "CCCCC/C(=C\\C(OC)OC)C(C)=O [Compound ID 11]", "measured.number": 5.80}
{"compound": "CCCCC/C(=C\\C1CC1)C(=O)OC [Compound ID 46]", "measured.number": 5.64}
{"compound": "CCCCC/C(=C/c1ccc(C(=O)OC)cc1)C(C)=O [Compound ID 41]", "measured.number": 4.33}
{"compound": "CCCCC/C(=C\\c1cccc(F)c1)C(C)=O [Compound ID 21, (E)-3-(3-fluorobenzylidene)octan-2-one]", "measured.number": 6.52}
{"compound": "CCCCC/C(=C\\C(C)(C)C)C(=O)O [Compound ID 54]", "measured.number": 5.59}
{"compound": "CCCCC/C(=C\\c1cccnc1)C(C)=O [Compound ID 44, (E)-3-(pyridin-3-ylmethylene)octan-2-one]", "measured.number": 7.00}
{"compound": "CCCCC/C(=C\\c1cccc(OC)c1)C(C)=O [Compound ID 35, (E)-3-(3-methoxybenzylidene)octan-2-one]", "measured.number": 6.30}
{"compound": "CCCCC/C(C(C)=O)=C(/C)c1ccccc1 [Compound ID 51, (E)-3-(1-phenylethylidene)octan-2-one]", "measured.number": 5.60}
{"compound": "CCCCC/C(=C\\c1ccccc1)C(=O)OC [Compound ID 47, (E)-methyl 2-benzylideneheptanoate]", "measured.number": 6.30}
{"compound": "CCCC/C(=C\\c1ccc(OC)cc1)C(C)=O [Compound ID 37, (E)-3-(4-methoxybenzylidene)heptan-2-one]", "measured.number": 5.85}
{"compound": "CCC/C(=C\\c1ccccc1)C(C)=O [Compound ID 32, (E)-3-benzylidenehexan-2-one]", "measured.number": 6.00}
{"compound": "CCCCC/C(=C\\c1cccs1)C(C)=O [Compound ID 9]", "measured.number": 5.28}
{"compound": "CCCCC/C(=C\\c1ccc(C(=O)OC)cc1)C(C)=O [Compound ID 40]", "measured.number": 5.96}
{"compound": "CCCCC/C(=C\\C1CC=CCC1)C(C)=O (centres unmarked) [Compound ID 17]", "measured.number": 6.22}
{"compound": "CCCCC/C(=C\\C1CCC1)C(C)=O [Compound ID 19, (E)-3-(cyclobutylmethylene)octan-2-one]", "measured.number": 6.52}
{"compound": "CCCCC/C(=C\\c1c(F)c(F)c(F)c(F)c1F)C(C)=O [Compound ID 27, (E)-3-(perfluorobenzylidene)octan-2-one]", "measured.number": 6.15}
{"compound": "CCCCC/C(=C\\c1ccc2ccccc2c1)C(C)=O [Compound ID 8]", "measured.number": 4.79}
